The reported numbers originate from the supplement of paper PMC10567573.

Assay: protein stability index of a GFP-peptide fusion (GPS, HEK-293T) (PSI 1-6); higher = more stable;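 also: 24-mer peptide tiles fused after GFP, lentivirally expressed, FACS-sorted into six equal bins by GFP/DsRed ratio, decoded by Illumina sequencing, PSI is the read-weighted mean bin number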
Settings: treatment: MLN4924 1 uM, 8 h; c terminus: a fixed tail appended
readout label: protein stability index
Answer as a number with no unit attached.

Past entries and their recorded results:
DPHSGHFVALKSVRVPNGGGGGGG [CDK4] : 3.87
VAAETGHTSTARLLLHRGAGKEAM [RIPK4] : 3.46
TYHVGKQCFFNGVFLGNKRSLSER [SPATS1] : 2.59
QALLKENRLLQEENRTLQVLRAEH [CBY2] : 4.2
LLAYLIRNGSERVVTSAREHIYDL [CLINT1] : 2.41

In: # return recorded protein stability index for input AVLFTGIVALYIASGLTGFIGLEV [ATL3]
Out: 3.52

In: # return recorded protein stability index for input AIKEMIENCLDAKSTSIQVIVKEG [MLH1]
Out: 2.74

In: # return recorded protein stability index for input NAIRVHHALATRASDYSKKSNVLK [PSD2]
Out: 3.5
